# Tested System: human PAH with the R408W mutation (Homo sapiens, UniProt P00439, R408W)
# Construct: expressed in transfected cells
# Sequence (P00439 1-452 R408W): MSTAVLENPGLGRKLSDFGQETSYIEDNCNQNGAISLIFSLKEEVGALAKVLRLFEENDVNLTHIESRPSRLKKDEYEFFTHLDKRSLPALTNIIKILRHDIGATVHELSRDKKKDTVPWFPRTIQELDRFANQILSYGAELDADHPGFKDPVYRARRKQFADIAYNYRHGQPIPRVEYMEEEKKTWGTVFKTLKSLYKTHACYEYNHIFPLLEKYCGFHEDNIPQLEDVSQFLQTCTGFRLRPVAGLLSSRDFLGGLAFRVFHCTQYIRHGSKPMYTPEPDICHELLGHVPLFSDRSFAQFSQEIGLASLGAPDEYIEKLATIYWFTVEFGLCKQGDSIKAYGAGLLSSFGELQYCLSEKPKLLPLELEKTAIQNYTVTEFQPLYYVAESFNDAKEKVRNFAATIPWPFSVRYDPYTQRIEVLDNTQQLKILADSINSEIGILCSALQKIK
# Assay Name: Cell Based Phenylalanine Flux Assay
# Run Parameters: A375 cells expressing human PAH R408W; 24 hrs compound incubation; 13C-Tyrosine by LC-MS; average where tested multiple times; read-out: AC50
Reported Metric: AC50

Consider the reported AC50 for these compounds:
# Compound String, Measured
data = [
    ("FC(F)c1cccn2nc([C@@H]3c4nc[nH]c4CCN3c3ccccn3)cc12", "< 500 nM"),
    ("COc1cccn2nc([C@H]3c4nc[nH]c4CCN3c3ccc(C(F)(F)F)cn3)cc12", "> 5000 nM"),
    ("O=C(c1nc2ccccc2o1)N1CCc2[nH]cnc2[C@H]1c1cc2c(C(F)F)cccn2n1", "500 to 1000 nM"),
]

q: Quick check: AC50 of Fc1cccc(F)c1-c1nnc(N2CCc3[nH]cnc3[C@H]2c2cc3c(Cl)cccn3n2)o1 ?
a: < 500 nM

q: Consider the compound FC(F)c1cccc2cc([C@@H]3c4nc[nH]c4CCN3c3ccc(C(F)(F)F)cn3)nn12 and give its measured AC50.
a: < 500 nM

q: Form field: reported AC50 of Fc1ccc(-c2nnc(N3CCc4[nH]cnc4[C@H]3c3cc4ccccn4n3)o2)cc1
a: < 500 nM

q: Entry under review: Cc1cccn2nc([C@@H]3c4nc[nH]c4CCN3C(=O)[C@H]3CC3(F)F)cc12 . Reported AC50?
a: 500 to 1000 nM

q: Reported AC50 for CCc1cccn2nc([C@H]3c4nc[nH]c4CCN3C(=O)c3nnc(C4CC4)o3)cc12 : what is it?
a: > 5000 nM

---

# Tested System: human PAH with the R408W mutation (Homo sapiens, UniProt P00439, R408W)
# Construct: expressed in transfected cells
# Assay Name: Cell Based Phenylalanine Flux Assay
# Run Parameters: A375 cells expressing R408W PAH; 24 hrs with compound, then 20 µM sepiapterin and 800 µM 13C9,15N-Phenylalanine for 4 hours; 13C-Tyrosine by LC-MS; average where tested multiple times; read-out: AC50
# key: entry, value: AC50

# Compound, Tested System, AC50
data = [
    ("CC(C)(O)c1nnc(C(=O)N2CCc3[nH]cnc3C2c2cc3c(C(F)F)cccn3n2)o1 (stereo not shown)", "human PAH with the R408W mutation (Homo sapiens, UniProt P00439, R408W)", "1 to 5 µM"),
]

q: Suppose we examine the compound O=C(c1nnc(N2CC(F)C2)o1)N1CCc2[nH]cnc2C1c1cc2ccccn2n1 (stereo not shown) ; what AC50 value has been reported?
a: 1 to 5 µM

q: Could you share which AC50 value was measured for Fc1cccn2nc(C3c4nc[nH]c4CCN3c3nnc(C4CCC4)o3)cc12 (stereo not shown) ?
a: 1 to 5 µM

q: Recorded AC50 of FC1(F)CC(c2nnc(N3CCc4[nH]cnc4C3c3cc4c(C5CC5)cccn4n3)o2)C1 (stereo not shown) , please.
a: 1 to 5 µM

q: Could you share which AC50 value was measured for Cc1ccc2c(C(=O)N3CCc4[nH]cnc4C3c3cc4cccc(C)n4n3)cnn2c1 (stereo not shown) ?
a: > 5 µM

q: For the compound shown here, Cc1nnc(C(=O)N2CCc3[nH]cnc3C2c2cc3ccccn3n2)o1 (stereo not shown) , give the reported AC50.
a: > 5 µM

q: Param item = Cc1cccc2cc(C3c4nc[nH]c4CCN3c3nnc(-c4cnccn4)o3)nn12 (stereo not shown) ; retrieve measured AC50.
a: 1 to 5 µM

---

# Tested System: human PAH with the R408W mutation (Homo sapiens, UniProt P00439, R408W)
# Construct: expressed in transfected cells
# Assay Name: Cell Based Phenylalanine Flux Assay
# Run Parameters: A375 cells expressing R408W PAH; 24 hrs with compound, then 20 µM sepiapterin and 800 µM 13C9,15N-Phenylalanine for 4 hours; 13C-Tyrosine by LC-MS; average where tested multiple times; read-out: AC50
Reported Metric: AC50

// below: answered compounds
# Compound, AC50
records = [
    ("Cc1cccc2cc(C3c4nc[nH]c4CCN3C(=O)c3cnn4ccccc34)nn12 (stereo not drawn)", "1 to 5 µM"),
    ("Clc1cccn2nc(C3c4nc[nH]c4CCN3c3nnc(-c4ncccn4)o3)cc12 (stereo not drawn)", "1 to 5 µM"),
    ("O=C(c1cn[nH]c1Cl)N1CCc2[nH]cnc2C1c1cc2ccccn2n1 (stereo not drawn)", "1 to 5 µM"),
    ("COc1cccn2nc(C3c4nc[nH]c4CCN3C(=O)c3cnn4cc(-c5cnn(C)c5)ccc34)cc12 (stereo not drawn)", "> 5 µM"),
    ("Cn1cc(-c2nnc(C(=O)N3CCc4[nH]cnc4[C@@H]3c3cc4cc(F)ccn4n3)o2)cn1 (single isomer, unassigned)", "1 to 5 µM"),
    ("c1ccn2nc(C3c4nc[nH]c4CCN3c3nnc(-c4ccncn4)o3)cc2c1 (stereo not drawn)", "> 5 µM"),
    ("FC(F)c1cccn2nc(C3c4nc[nH]c4CCN3c3nnc(N4CCOCC4)o3)cc12 (stereo not drawn)", "> 5 µM"),
    ("O=C(c1cn[nH]c1)N1CCc2[nH]cnc2C1c1cc2ccccn2n1 (stereo not drawn)", "> 5 µM"),
]

q: Data request, read-out AC50, for Cc1cccn2nc(C3c4nc[nH]c4CCN3C(=O)c3nnc(N4CCN(C)CC4)o3)cc12 (stereo not drawn)
a: 1 to 5 µM

---

# Tested System: human PAH with the R408W mutation (Homo sapiens, UniProt P00439, R408W)
# Construct: expressed in transfected cells
# Assay Name: Cell Based Phenylalanine Flux Assay
# Run Parameters: A375 cells expressing human R408W PAH; 24 hrs compound incubation; 13C-Tyrosine by LC-MS; average where tested multiple times; read-out: AC50
Reported Metric: AC50

Answered cases to consult:
# Molecule, AC50
measured = [
    ("O=C(c1nnc(C2CC2)o1)N1CCc2[nH]cnc2[C@H]1c1cc2cc(F)ccn2n1 [Example 1130]", "500 to 1000 nM"),
    ("O=C(c1nnc(-c2ccccn2)o1)N1CCc2[nH]cnc2[C@@H]1c1cc2c(Cl)cccn2n1 [Example 734]", "> 5000 nM"),
    ("O=C(c1nnc(C2CC(F)(F)C2)o1)N1CCc2[nH]cnc2[C@@H]1c1cc2c(F)cccn2n1 [Example 1605]", "> 5000 nM"),
]

q: Please look up its AC50: Cc1cc(C(=O)N2CCc3[nH]cnc3[C@H]2c2cc3c(C)cccn3n2)n(C)n1 [Example 900]
a: < 500 nM

q: I am curious: what AC50 value has been reported for Cn1cc(-c2nc(C(F)F)c(C(=O)N3CCc4[nH]cnc4[C@@H]3c3cc4c(F)cccn4n3)o2)cn1 [Example 903] ?
a: 1000 to 5000 nM

q: Data request, read-out AC50, for Cc1c(-c2nnc(C(=O)N3CCc4[nH]cnc4[C@@H]3c3cc4ccccn4n3)o2)cnn1C [Example 973]
a: > 5000 nM

q: // lookup AC50 for FC(F)(F)c1cccn2nc([C@@H]3c4nc[nH]c4CCN3c3nnc(-c4ccccn4)o3)cc12 [Example 1610]
a: 500 to 1000 nM

---

# Tested System: human PAH with the R408W mutation (Homo sapiens, UniProt P00439, R408W)
# Construct: expressed in transfected cells
# Assay Name: Cell Based Phenylalanine Flux Assay;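 further: after compound treatment, cells received sepiapterin plus isotope-labelled Phenylalanine for 4 hours, then labelled Tyrosine in the medium was quantified, 10-point 2-fold dilution series run in duplicate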
# Run Parameters: A375 cells expressing human R408W PAH; 24 hrs compound incubation; 13C-Tyrosine by LC-MS; average where tested multiple times; read-out: AC50
AC50 values, listed per item

# Compound, Measured
measured = [
    ("O=C(c1nnc(-c2ccn(C(F)(F)F)n2)o1)N1CCc2[nH]cnc2[C@H]1c1cc2c(OC(F)F)cccn2n1 [Example 1708]", "500 to 1000 nM"),
    ("Cc1c(-c2nnc(C(=O)N3CCc4[nH]cnc4[C@@H]3c3cc4cccc(F)n4n3)o2)cnn1C [Example 1463]", "1000 to 5000 nM"),
]

q: Need AC50 of O=C(c1nnc(C2CC2)o1)N1CCc2[nH]cnc2[C@@H]1c1cc2c(C(F)(F)F)cccn2n1 [Example 943] , thanks.
a: > 5000 nM

q: So what's the measured AC50 for this one? Fc1cccn2nc([C@@H]3c4nc[nH]c4CCN3c3nnc(-c4ccccn4)o3)cc12 [Example 1613]
a: < 500 nM

q: Entry O=C(c1cnn2cc(C3CC3)ccc12)N1CCc2[nH]cnc2[C@H]1c1cc2c(C(F)(F)F)cccn2n1 [Example 1716] has what AC50?
a: < 500 nM

Cited source: patent US20230365592A1
